System: SF-295
Method notes: NCI tumour cell line growth inhibition, 48 h
The source made the active and inactive calls. No stated cut-off is given here; in the data, active = GI50 up to about 1.1 µM and inactive = higher.
Quick list: GI50 per entry.

compound="COC1(O)C(=O)c2ccccc2OC1(OC)c1ccccc1 (stereo not given)" result="> 100 µM (inactive)"

Query: I am curious: what GI50 value has been reported for CC1OC(O[C@H]2CC[C@]3(C)[C@H]4CC=C5[C@@H]6[C@@H](C)[C@H](C)CC[C@]6(C(=O)O)CC[C@@]5(C(=O)O)[C@]4(C)CC[C@H]3C2(C)C)C(O)C(O)C1O (stereo not given in full) ?
Result: > 75 µM (inactive)

Query: What does the data say about its GI50? Entry: Cc1c([N+](=O)[O-])oc2ccc3ccccc3c12
Result: 58.1 µM (inactive)

Query: Could you tell me which GI50 is on file for CN(C)Cc1ccc(-c2cc3onc(-c4ccccc4)c3c(=O)n2C)cc1 ?
Result: 22.9 µM (inactive)

Query: Consider the compound CC(CC=O)Nc1nn2c(=O)c3ccccc3nc2s1 (stereo not given) and give its measured GI50.
Result: > 100 µM (inactive)

Query: Requested read-out: GI50. Entry: O=C1c2cccnc2-c2nccc3c2c1nc1ccc(Br)cc13
Result: 0.0401 µM (active)

Query: May I ask what GI50 has been recorded for c1ccc(CN2CCCN3CCN(CCCN(Cc4ccccc4)CC3)CC2)cc1 ?
Result: 87.7 µM (inactive)

Query: Give the measured GI50 of Nc1nncc2c1ccn2C1OC(CO)C(O)C1O (stereo not given) .
Result: > 100 µM (inactive)

Query: Reported GI50, compound C(=N\Nc1nnc(-c2nnc(N/N=C/c3ccccc3)o2)o1)/c1ccccc1 : ____
Result: > 10 µM (inactive)

Query: Request the reported GI50 associated with O=C(/C=C/c1ccccc1)/C=C/c1ccccc1O
Result: 24.4 µM (inactive)
